Would you mind telling me the reported IC50 of each entry?
Target: C-C chemokine receptor type 10 (Homo sapiens)
Sequence (P46092 whole entry): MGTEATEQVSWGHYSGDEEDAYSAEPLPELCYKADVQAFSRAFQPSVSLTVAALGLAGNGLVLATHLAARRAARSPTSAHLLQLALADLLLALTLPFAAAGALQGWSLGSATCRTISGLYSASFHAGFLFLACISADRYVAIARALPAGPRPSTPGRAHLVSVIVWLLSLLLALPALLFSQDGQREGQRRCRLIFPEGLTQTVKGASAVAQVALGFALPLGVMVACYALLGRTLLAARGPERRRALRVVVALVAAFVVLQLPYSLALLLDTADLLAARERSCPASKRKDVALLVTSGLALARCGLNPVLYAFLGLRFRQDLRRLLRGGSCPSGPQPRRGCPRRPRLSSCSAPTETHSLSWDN
Assay: Antagonist activity at human CCR10 expressed in CHOK1 cells coexpressing aequorin/Galphaq assessed as inhibition of human CCL28-dependent calcium flux by FLIPR assay
Type: functional, cell-based, CHO-K1
Kindly answer with a numeric value in nM, unit omitted.

# compound CC1CCN(C(=O)C(CCn2cccc2C#N)NS(=O)(=O)c2cc(Cl)c(N)c(Cl)c2)CC1 (stereo not drawn) ; its IC50 = 12.6

The compound identified as CC1CCN(C(=O)C(CCn2cccc2C#N)NS(=O)(=O)c2cccc3[nH]ccc23)CC1 (racemic) registered its IC50 at 1.26

What the record says about CC1CCN(C(=O)C(CCn2ccnc2[N+](=O)[O-])NS(=O)(=O)c2cc(Cl)c(N)c(Cl)c2)CC1 (stereo not drawn) : IC50 is 794

* * *

molecular target: C-X-C chemokine receptor type 3 (Homo sapiens); assay: Antagonist activity at human CXCR3 assessed as inhibition of IP10-induced calcium flux
Sequence (P49682 whole entry): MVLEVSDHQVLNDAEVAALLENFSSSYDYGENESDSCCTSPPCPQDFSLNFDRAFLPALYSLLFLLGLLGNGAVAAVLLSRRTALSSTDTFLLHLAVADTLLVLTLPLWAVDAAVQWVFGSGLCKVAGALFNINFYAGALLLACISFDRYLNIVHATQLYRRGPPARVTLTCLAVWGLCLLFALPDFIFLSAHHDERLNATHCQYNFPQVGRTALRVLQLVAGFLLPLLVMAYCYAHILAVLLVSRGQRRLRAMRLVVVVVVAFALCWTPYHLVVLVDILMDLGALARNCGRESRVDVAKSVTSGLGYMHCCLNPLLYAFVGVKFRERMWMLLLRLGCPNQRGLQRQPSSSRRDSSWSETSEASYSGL
So I've got a bunch of compounds here, and I need their IC50 values.

Data point: CC1CCN(C(=O)C(CCn2cccc2C#N)NS(=O)(=O)c2cccc3[nH]ccc23)CC1 (racemic) ; IC50 = > 10 µM

Briefly, IC50 measured for CC1CCN(C(=O)C(CCn2cccc2C#N)NS(=O)(=O)c2cc(Cl)c(N)c(Cl)c2)CC1 (configuration not stated) : > 10 µM

* * *

biological target: C-C chemokine receptor type 10 (Homo sapiens); test: Antagonist activity at human CCR10 expressed in CHOK1 cells coexpressing aequorin/Galphaq assessed as inhibition of human CCL27-dependent calcium flux in presence of coelenterazine H by chemiluminescence assay; assay type: functional, cell-based, CHO-K1; details: read-out: pIC50 (converted)
PARAMETER: log10 of IC50 (log10 of the value in nM)
Heads up, the numbers here are log10 of IC50 in nM units.

The recorded log10 of IC50 for entry `CC1CCN(C(=O)[C@@H](CCn2ccnc2[N+](=O)[O-])NS(=O)(=O)c2cc(Cl)c(N)c(Cl)c2)CC1` equals 2.70

Summary for this molecule, CC1CCN(C(=O)C(CCn2cccc2C#N)NS(=O)(=O)c2cc(Cl)c(N)c(Cl)c2)CC1 (centres undefined) : log10 of IC50 is 1.30

The measured log10 of IC50 associated with CC1CCN(C(=O)C(CCn2ccnc2C#N)NS(=O)(=O)c2cc(Cl)c(N)c(Cl)c2)CC1 (centres undefined) reads 2.70

For reference, reported log10 of IC50 for `CC1CCN(C(=O)[C@H](CCn2cccc2C#N)NS(=O)(=O)c2cc(Cl)c(N)c(Cl)c2)CC1` stands at 4.20

Entry CC1CCN(C(=O)C(CCc2ccccc2Cl)NS(=O)(=O)c2cc(Cl)c(N)c(Cl)c2)CC1 (centres undefined) , log10 of IC50 reported as 2.10

Item: CC1CCCCN1C(=O)C(CCn1cccc1C#N)NS(=O)(=O)c1cc(Cl)c(N)c(Cl)c1 (centres undefined) | log10 of IC50: 2.90

Noted for CC1CCCN(C(=O)C(CCn2cccc2C#N)NS(=O)(=O)c2cc(Cl)c(N)c(Cl)c2)C1 (centres undefined) : its log10 of IC50 reads 2.80

Per the record, CC1CCN(C(=O)C(CCn2cccc2)NS(=O)(=O)c2cc(Cl)c(N)c(Cl)c2)CC1 (centres undefined) has log10 of IC50 of 3.10

Item: CC1CCN(C(=O)C(CCn2cccc2C#N)NS(=O)(=O)c2ccc3cc[nH]c3c2)CC1 (centres undefined) | log10 of IC50: 0.90

* * *

experiment: Half life in mouse liver microsomes; format: ADME
PARAMETER: half-life

Documented half-life of CC1CCN(C(=O)C(CCn2cccc2C#N)NS(=O)(=O)c2cccc3[nH]ccc23)CC1 (racemic) : < 3 min

* * *

target: C-C chemokine receptor type 10 (Homo sapiens, UniProt P46092); test: Antagonist activity at human CCR10 expressed in CHOK1 cells coexpressing aequorin/Galphaq assessed as inhibition of human CCL27-dependent calcium flux in presence of coelenterazine H by chemiluminescence assay; assay type: functional, cell-based, CHO-K1; details: read-out: pIC50 (converted)
Threshold-based label: IC50 under 0.1 µM gives Satisfied, IC50 not under 0.1 µM gives Not satisfied.

Task item: Threshold test, IC50 < 0.1 µM: CC1CCN(C(=O)C(CCn2cncn2)NS(=O)(=O)c2cc(Cl)c(N)c(Cl)c2)CC1 (stereo unspecified)
Reply: Not satisfied

Task item: Is IC50 of CN(C)C(=O)C(CCn1cccc1C#N)NS(=O)(=O)c1cccc2[nH]ccc12 (stereo unspecified) strictly below 0.1 µM?
Reply: Not satisfied

Task item: Consider CC1CCCCN1C(=O)C(CCn1cccc1C#N)NS(=O)(=O)c1cccc2[nH]ccc12 (stereo unspecified) . Does its IC50 lie strictly below 0.1 µM?
Reply: Satisfied

Task item: Given CC1CCN(C(=O)C(CCn2cccc2C#N)NS(=O)(=O)c2cccc3[nH]ccc23)CC1 (racemic) , is recorded IC50 strictly lower than 0.1 µM?
Reply: Satisfied

Task item: A record lists N#Cc1cccn1CCC(NS(=O)(=O)c1cccc2[nH]ccc12)C(=O)N1CCCCCC1 (stereo unspecified) . Is its IC50 below 0.1 µM?
Reply: Satisfied

Task item: Determine if CC1CCN(C(=O)C(CCn2cccc2C#N)NS(=O)(=O)c2cccc3c2ccn3C)CC1 (stereo unspecified) shows IC50 strictly lower than 0.1 µM.
Reply: Not satisfied

Task item: # TODO verify IC50 < 0.1 µM strictly for this compound: N#Cc1cccn1CCC(NS(=O)(=O)c1cccc2[nH]ccc12)C(=O)N1CCC(O)CC1 (stereo unspecified)
Reply: Not satisfied

Task item: For this compound, is IC50 lower than 0.1 µM? CC1CCN(C(=O)C(CCn2cccc2C#N)NS(=O)(=O)c2cccc3[nH]ccc23)CC1 (stereo in doubt; form 1)
Reply: Satisfied

Task item: In the record for CC1CCCN(C(=O)C(CCn2cccc2C#N)NS(=O)(=O)c2cccc3[nH]ccc23)C1 (stereo unspecified) , is IC50 less than 0.1 µM?
Reply: Satisfied

Task item: Report whether reported IC50 is lower than 0.1 µM (strictly) for N#Cc1cccn1CCC(NS(=O)(=O)c1cc(Cl)c(N)c(Cl)c1)C(=O)N1CCCCCC1 (stereo unspecified)
Reply: Not satisfied

Task item: Report whether reported IC50 is lower than 0.1 µM (strictly) for `CC1CCN(C(=O)[C@@H](CCc2ccccc2)NS(=O)(=O)c2cc(Cl)c(N)c(Cl)c2)CC1`
Reply: Not satisfied

* * *

Target: C-C chemokine receptor type 10 (Mus musculus)
Sequence (Q9JL21 whole entry): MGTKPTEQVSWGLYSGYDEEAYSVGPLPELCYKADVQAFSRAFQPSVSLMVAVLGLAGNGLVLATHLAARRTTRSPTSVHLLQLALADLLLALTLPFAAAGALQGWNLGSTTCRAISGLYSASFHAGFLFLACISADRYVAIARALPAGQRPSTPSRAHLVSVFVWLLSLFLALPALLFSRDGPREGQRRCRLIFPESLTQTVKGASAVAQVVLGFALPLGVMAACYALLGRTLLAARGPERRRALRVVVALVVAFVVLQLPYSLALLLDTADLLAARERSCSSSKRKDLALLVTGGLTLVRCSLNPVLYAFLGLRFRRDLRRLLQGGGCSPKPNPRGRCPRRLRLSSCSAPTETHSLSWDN
Test: Antagonist activity at mouse CCR10 expressed in CHOK1 cells coexpressing aequorin/Galphaq assessed as inhibition of CCL27-dependent calcium flux in presence of coelenterazine H by chemiluminescence assay
Assignment: determine reported IC50 for the given molecules.
# value in µM; strip the unit string

Data point: CC1CCN(C(=O)C(CCn2cccc2C#N)NS(=O)(=O)c2cccc3[nH]ccc23)CC1 (stereo in doubt; form 2) ; IC50 = 15.8

molecule CC1CCN(C(=O)C(CCn2cccc2C#N)NS(=O)(=O)c2cc(Cl)c(N)c(Cl)c2)CC1 (stereo not drawn) , IC50 observed: 1.58

Form field IC50, entry CC1CCN(C(=O)C(CCn2cccc2C#N)NS(=O)(=O)c2cccc3[nH]ccc23)CC1 (stereo in doubt; form 1) : 0.0251

Notebook: `CC1CCN(C(=O)[C@@H](CCc2ccccc2)NS(=O)(=O)c2cc(Cl)c(N)c(Cl)c2)CC1` , IC50 read as 10

Value of IC50 reported for the molecule CC1CCN(C(=O)C(CCn2cccc2C#N)NS(=O)(=O)c2cccc3[nH]ccc23)CC1 (racemic) is 0.0631

Value of measured IC50 for the entry CC1CCN(C(=O)C(CCn2cccc2C#N)NS(=O)(=O)c2cccc3cc[nH]c23)CC1 (stereo not drawn) : 7.94

Value source: ChEMBL document CHEMBL3862010
